- TARGET SYSTEM: UniProtKB P31648
- PROTOCOL NOTES: Inhibition of mouse GAT-1 assessed as percentage of remaining specific binding of NO711 at 1 uM after 4 hrs by LC-ESI-MS/ms analysis relative to control
ENDPOINT NAME: Activity (%)
A number alone suffices; assume %.

Reference set, count: 6
>  <MOLECULE>
O=Cc1ccccc1-c1cccc(F)c1

>  <Activity [%]>
92

$$$$
>  <MOLECULE>
O=C(O)C1CCCN(CCO/N=C/c2cccnc2-c2ccc(Cl)cc2)C1 (racemic)

>  <Activity [%]>
22

$$$$
>  <MOLECULE>
O=C(O)C1CCCN(CCO/N=C/c2ccccc2-c2ccccc2F)C1 (racemic)

>  <Activity [%]>
25

$$$$
>  <MOLECULE>
O=Cc1ccccc1-c1ccccc1F

>  <Activity [%]>
93

$$$$
>  <MOLECULE>
O=Cc1cccnc1-c1ccccc1F

>  <Activity [%]>
80

$$$$
>  <MOLECULE>
O=Cc1cccc(Br)n1

>  <Activity [%]>
92

$$$$

Would you mind telling me what Activity value was observed for Cc1ccccc1-c1ncccc1/C=N/OCCN1CCCC(C(=O)O)C1 (racemic) ?
22

Try this molecule too: O=Cc1cc(F)ccc1-c1ccc(Cl)cc1Cl
82

###

- TARGET SYSTEM: GABA transporter 4 (Mus musculus)
- PROTOCOL NOTES: Inhibition of mouse GAT-4 expressed in HEK293 cells assessed as remaining [3H]GABA uptake at 100 uM preincubated for 25 mins followed by [3H]GABA addition and measured after 4 mins by scintillation counting analysis
- Type: cell-based
ENDPOINT NAME: Activity
Give the value; after it, write the unit.

>  <COMPOUND>
O=C(O)C1CCCN(CCO/N=C/c2ccccc2-c2ccc(F)cc2F)C1 (racemic)

>  <ENDPOINT NAME>
Activity

>  <EXPERIMENTAL RESULT>
62.5%

$$$$
>  <COMPOUND>
O=C(O)[C@@H]1CCCN(CCO/N=C/c2ccccc2-c2ccc(F)cc2Cl)C1

>  <ENDPOINT NAME>
Activity

>  <EXPERIMENTAL RESULT>
50.9%

$$$$
>  <COMPOUND>
O=C(O)[C@@H]1CCCN(CCO/N=C/c2ccccc2-c2ccc(F)cc2F)C1

>  <ENDPOINT NAME>
Activity

>  <EXPERIMENTAL RESULT>
62.5%

$$$$

Attention now shifts to the item below.
Look up Activity with GABA transporter 4 (Mus musculus) for this compound: O=C(O)C1CCCN(CCO/N=C/c2ccccc2-c2ccc(F)cc2Cl)C1 (racemic)
80.9%

###

- TARGET SYSTEM: Sodium- and chloride-dependent GABA transporter 1 (Rattus norvegicus, UniProt P23978)
- PROTOCOL NOTES: Inhibition of GAT-1 in rat brain homogenate assessed as decrease in [3H]GABA uptake preincubated for 8 mins followed by [3H]GABA addition and measured after 8 mins by scintillation counting analysis
- Assay type: tissue-based
ENDPOINT NAME: pIC50
Conceptually, pIC50 converts a concentration in mol/L into minus its log10.

Would you mind telling me what pIC50 value was observed for O=C(O)C1=CCCN(CCON=C(c2ccccc2)c2ccccc2)C1 ?
7.40

###

- TARGET SYSTEM: Sodium- and chloride-dependent GABA transporter 1 (Mus musculus) (UniProt P31648)
- PROTOCOL NOTES: Inhibition of mouse GAT-1 assessed as percentage of remaining specific binding of NO711 at 1 uM after 4 hrs by LC-ESI-MS/ms analysis relative to control
ENDPOINT NAME: Activity (%)
A number alone suffices; assume %.

Reference set, count: 10
>  <MOLECULE>
O=Cc1cccnc1Br

>  <VALUE UNITS>
%

>  <Activity>
92

$$$$
>  <MOLECULE>
O=Cc1cc(F)ccc1-c1ccccc1F

>  <VALUE UNITS>
%

>  <Activity>
80

$$$$
>  <MOLECULE>
O=C(O)C1CCCN(CCO/N=C/c2cc(F)ccc2-c2ccccc2Cl)C1 (racemic)

>  <VALUE UNITS>
%

>  <Activity>
41

$$$$
>  <MOLECULE>
O=C(O)C1CCCN(CCO/N=C/c2ccc(C#Cc3ccccc3)s2)C1 (racemic)

>  <VALUE UNITS>
%

>  <Activity>
48

$$$$
>  <MOLECULE>
O=C(O)C1CCCN(CCO/N=C/c2sccc2-n2cccc2)C1 (racemic)

>  <VALUE UNITS>
%

>  <Activity>
60

$$$$
>  <MOLECULE>
O=Cc1cc(F)ccc1-c1ccccc1

>  <VALUE UNITS>
%

>  <Activity>
80

$$$$
>  <MOLECULE>
O=C(O)C1CCCN(CCO/N=C/c2sccc2-c2ccc(Cl)cc2Cl)C1 (racemic)

>  <VALUE UNITS>
%

>  <Activity>
12

$$$$
>  <MOLECULE>
O=C(O)C1CCCN(CCO/N=C/c2ccc(OCc3ccccc3)cc2)C1 (racemic)

>  <VALUE UNITS>
%

>  <Activity>
29

$$$$
>  <MOLECULE>
O=Cc1ccccc1[N+](=O)[O-]

>  <VALUE UNITS>
%

>  <Activity>
92

$$$$
>  <MOLECULE>
COc1ccccc1C=O

>  <VALUE UNITS>
%

>  <Activity>
89

$$$$

Would you mind telling me what Activity value was observed for O=C(O)C1CCCN(CCO/N=C/c2cccn2-c2ccc(C(F)(F)F)cc2)C1 (racemic) ?
91

Try this molecule too: O=Cc1ccc(Oc2ccccc2)cc1
90
